tested on: Staphylococcus aureus; assay: Antibacterial activity against […] Staphylococcus aureus ATCC 43300 assessed as growth inhibition after 10 hrs by spectrophotometry; format: functional, organism-based; conditions: ATCC 43300, 10 h
# pIC50 per entry
The scale used: pIC50 is minus the common logarithm of the concentration in molar units.

These solved cases illustrate the format of a correct answer.
Oc1ccc(-c2ccsc2)cc1O
4.93
CCCCc1ccsc1-c1ccc(O)c(O)c1
5.09
Oc1ccc(-c2sc(Cl)c(Cl)c2Cl)cc1O
5.55

Please look up its pIC50: Oc1ccc(-c2cc(Cl)sc2Cl)cc1O
4.95

====

tested on: Staphylococcus aureus; test: Antibacterial activity against methicillin-resistant Staphylococcus aureus ATCC BAA1680 assessed as growth inhibition after 10 hrs by spectrophotometry; type: functional, organism-based; settings: ATCC BAA1680, 10 h
# pIC50 per entry
The scale used: pIC50 is minus the common logarithm of the concentration in molar units.

These solved cases illustrate the format of a correct answer.
Oc1ccc(-c2cc(Cl)sc2Cl)cc1O
5.34
CCCc1ccsc1-c1ccc(O)c(O)c1
4.48
Oc1ccc(-c2sc(Cl)c(Cl)c2Cl)cc1O
6.00
Oc1ccc(-c2ccsc2)cc1O
4.38
CCCCc1ccsc1-c1ccc(O)c(O)c1
4.91

Please look up its pIC50: Cc1sc(C)c(-c2ccc(O)c(O)c2)c1Br
4.63

Please look up its pIC50: Oc1ccc(-c2sccc2Cl)cc1O
4.20

====

test system: Staphylococcus aureus; assay: Antibacterial activity against […] Staphylococcus aureus ATCC 43300 assessed as growth inhibition after 10 hrs by spectrophotometry; assay type: functional, organism-based; details: ATCC 43300, 10 h
# IC50 per entry
Please respond with the number in µM and leave the unit unwritten.

These solved cases illustrate the format of a correct answer.
Cc1sc(C)c(-c2ccc(O)c(O)c2)c1Br
12.2
CCCc1ccsc1-c1ccc(O)c(O)c1
13.9

Turning now to a further record.
Staphylococcus aureus / IC50 / Oc1ccc(-c2sccc2Cl)cc1O : value?
25.8
